- Tested on: barnyardgrass
- Test Details: Test A postemergence
- Type: in vivo, Echinochloa crus-galli
- Recorded Conditions: 500 g ai/ha, 0 to 100 scale where 0 is no effect and 100 is complete control
Exercise: state measured Plant response rating, Barnyardgrass for each of the molecules provided.
Answers are plain numbers.

>  <Molecule>
N#Cc1cn(-c2c(C#N)cccc2Oc2ncc(Cl)cn2)nn1 [Compound 273]

>  <Observed Measurement>
90

$$$$
>  <Molecule>
N#Cc1cccc(Oc2ncc(C(F)(F)F)cn2)c1-n1cc(Br)cn1 [Compound 113]

>  <Observed Measurement>
80

$$$$
>  <Molecule>
COc1ccc(C#N)c(-n2cc(Br)cn2)c1Oc1ncc(Cl)cn1 [Compound 212]

>  <Observed Measurement>
0

$$$$
>  <Molecule>
Fc1cnc(Oc2cccc(C(F)F)c2-n2cc(C(F)(F)F)cn2)nc1 [Compound 164]

>  <Observed Measurement>
100

$$$$

Report Plant response rating, Barnyardgrass for every entry below.
1. C#Cc1cccc(Oc2ncc(Cl)cn2)c1-n1cc(Br)cn1 [Compound 199]
2. NN=Cc1cccc(Oc2ncc(Cl)cn2)c1-n1cc(Br)cn1 [Compound 288]
3. O=Cc1cccc(Oc2ncc(Br)cn2)c1-n1cc(Br)cn1 [Compound 230]

Result string:
1: 80; 2: 10; 3: 20

* * *

Task for the reader: assign each of the following compounds its reported Crabgrass, Large plant response rating.
- Test system: large (Lg) crabgrass
- Test Details: Test A postemergence
- Type: in vivo, Digitaria sanguinalis
- Recorded Conditions: 125 g ai/ha, 0 to 100 scale where 0 is no effect and 100 is complete control
Numbers only.

Known Crabgrass, Large plant response rating results, listed for orientation:
>  <Smiles Str>
N#Cc1cnc(Oc2ccccc2-n2cc(Br)cn2)nc1

>  <Crabgrass, Large plant response rating>
0

$$$$
>  <Smiles Str>
FC(F)c1cccc(Oc2ncc(Cl)cn2)c1-n1cc(I)cn1

>  <Crabgrass, Large plant response rating>
70

$$$$
>  <Smiles Str>
Fc1cc(Oc2ncc(Cl)cn2)c(-n2cc(Br)cn2)cc1F

>  <Crabgrass, Large plant response rating>
30

$$$$
>  <Smiles Str>
N#Cc1cc(F)cc(Oc2ncc(Cl)cn2)c1-n1cc(Br)cn1

>  <Crabgrass, Large plant response rating>
60

$$$$

Query string: Given the compound Cc1cnc(Oc2cccc(C#N)c2-n2cc(C(F)(F)F)cn2)nc1 , write its reported Crabgrass, Large plant response rating.
Result string: 90

* * *

- System: pigweed
- Test Details: Test C postemergence
- Type: in vivo, Amaranthus retroflexus
- Recorded Conditions: 125 g ai/ha, postemergence
Measurement Kind: Plant response rating (0 to 100), Pigweed
Give bare numbers.

>  <Molecule>
CC(C)c1cnn(-c2c(C#N)cccc2Oc2ncc(Cl)cn2)c1 [Compound 85]

>  <Target Or Test System>
pigweed

>  <Observed Measurement>
70

$$$$

For each of the molecules below, state Plant response rating (0 to 100), Pigweed.
1. FC(F)Oc1cnn(-c2ccccc2Oc2ncc(Cl)cn2)c1 [Compound 98]
2. Fc1cnc(Oc2cccc(C(F)F)c2-n2cc(Cl)cn2)nc1 [Compound 94]
3. N#Cc1cccc(Oc2ncc(Cl)cn2)c1-n1cc(OC(F)F)cn1 [Compound 97]
4. N#Cc1cccc(Oc2ncc(Cl)cn2)c1-n1cc(Cl)cn1 [Compound 72]

Result string:
1: 75; 2: 85; 3: 95; 4: 85
